target: T1, human MSLN full-length protein (NCBI: AAH09272.1) expressed on HEK293T-hMSLN-B8 cells (human, UniProt Q13421 296-598); assay: FACS on HEK293T-hMSLN-B8 cells
T1 construct: Whole encoded precursor
T1 sequence (Q13421 other isoform, or with tags, fused parts or gaps limits assumed): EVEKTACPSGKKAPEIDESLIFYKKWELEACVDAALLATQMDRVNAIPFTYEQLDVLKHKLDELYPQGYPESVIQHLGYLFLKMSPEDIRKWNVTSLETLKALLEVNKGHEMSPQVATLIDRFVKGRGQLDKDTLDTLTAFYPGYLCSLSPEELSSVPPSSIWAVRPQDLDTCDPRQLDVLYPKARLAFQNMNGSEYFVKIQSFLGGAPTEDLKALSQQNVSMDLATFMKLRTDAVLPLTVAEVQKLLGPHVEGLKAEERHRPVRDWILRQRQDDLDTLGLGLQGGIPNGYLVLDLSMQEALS
outcome-measure: Maximum mean fluorescence intensity

I would be grateful if you could share the reported Maximum mean fluorescence intensity for S009-F2.58.8 (antibody, human IgG1, kappa, V domains shown, human-murine chimeric antibody, human IgG1/kappa constant regions) VH: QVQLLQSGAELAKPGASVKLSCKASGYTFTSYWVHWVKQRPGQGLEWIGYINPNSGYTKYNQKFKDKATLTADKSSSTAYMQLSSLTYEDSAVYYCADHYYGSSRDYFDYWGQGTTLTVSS VL: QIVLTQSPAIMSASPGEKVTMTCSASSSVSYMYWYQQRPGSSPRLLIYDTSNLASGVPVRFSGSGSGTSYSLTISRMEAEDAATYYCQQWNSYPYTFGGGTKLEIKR .
141000
